For each of the binders below, state its primary supernatant functional assay (% inh.), NF-kB luciferase reporter.
- subject_of_test: T1, human IL-1RAcP on 293T/17-FR cells (human, UniProt Q9NPH3 21-570)
- T1 sequence (looked up): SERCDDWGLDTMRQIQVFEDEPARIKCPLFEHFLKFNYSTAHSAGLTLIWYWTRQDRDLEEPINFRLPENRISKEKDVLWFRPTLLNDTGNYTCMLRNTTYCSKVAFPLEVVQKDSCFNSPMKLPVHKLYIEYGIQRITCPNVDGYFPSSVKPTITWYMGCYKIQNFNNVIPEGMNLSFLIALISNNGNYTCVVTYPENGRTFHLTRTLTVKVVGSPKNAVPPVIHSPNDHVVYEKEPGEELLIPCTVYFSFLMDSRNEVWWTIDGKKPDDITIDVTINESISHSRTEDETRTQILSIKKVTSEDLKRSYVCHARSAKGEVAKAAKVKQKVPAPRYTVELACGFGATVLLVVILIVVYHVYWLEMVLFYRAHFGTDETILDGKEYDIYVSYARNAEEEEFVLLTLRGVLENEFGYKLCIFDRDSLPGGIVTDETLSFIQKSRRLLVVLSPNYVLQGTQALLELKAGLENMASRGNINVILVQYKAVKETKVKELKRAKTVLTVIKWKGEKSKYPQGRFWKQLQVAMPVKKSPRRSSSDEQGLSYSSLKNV
- assay_remarks: cell-based or functional assay
Output spec: scalar in %, unitless text.

query: Suppose we examine the binder P013.S.01.B.D04 (antibody, V domains shown, rabbit monoclonal antibody; also called P013.A.00088.B09) VH: QEQLKESGGRLVTPGGSLTLTCTVSGFSLSIYAMGWFRQAPGKGLEWIGDIYPGSDSTWYASWAKGRFTISKTSTTVDLKITSPTTEDTATYFCAREIDAGYVGYGFDLWGQGTLVTVSS VL: AQALTQTPSSVSAAVGGTVTINCQSSQSVYSDYLAWYQQKPGQSPKLLIYKASKLASGVPSRFKGSGSGTEFTLTISGVQSDDAATYYCQATYYSVGWYRAFGGGTEVVVK ; what primary supernatant functional assay (% inh.), NF-kB luciferase reporter value has been reported?
result: 95

query: Suppose we examine the binder P013.S.01.B.F02 (antibody, V domains shown, rabbit monoclonal antibody; also called P013.A.00043.D08) VH: QEQLVESGGGLVQPEGSLTLTCTASGFSFSSNYWMCWVRQAPGKGLEWIACIYTGGSGVTYYASWAKGRFTLSKTSSTTVTLQVTSLTAADTATYFCARDLVVVTSFNLWGQGTLVTVSS VL: ALMMTQTPSPVSAAVGGTVTINCQASEDIYSNLAWYQQKPGQPPKLLIYSASTLASGVPSRFSGSGSGTEFTLTISGVQSDDAATYYCLGVCTDISVDDVYNSFGGGTEVVVK ; what primary supernatant functional assay (% inh.), NF-kB luciferase reporter value has been reported?
result: 76

query: Suppose we examine the binder P013.S.01.B.A04 (antibody, V domains shown, rabbit monoclonal antibody; also called P013.A.00085.C03) VH: QEQLEESGGGLVKPGGTLTLTCKASGIDFSSYYYMCWVRQAPGKGLEWIACIFIGYGDVTWYASWAKGRFTISKASSTTVTLQMTSLTAADTATYFCARALGSSGYRVNLWGPGTLVTVSS VL: ALVMTQTPSSVSAAVGGTVTINCQASENIYSSLAWYQQKPGQPPKLLIYDASDLASGVPSRFKGSGSGKEFTLTISDLESDDAATYYCQQGYYSGGTDNDVFGGGTEVVVK ; what primary supernatant functional assay (% inh.), NF-kB luciferase reporter value has been reported?
result: 74

query: Suppose we examine the binder P013.S.02.B.G01 (antibody, V domains shown, rabbit monoclonal antibody; also called P013.A.00015.G07) VH: QSVEESGGRLVTPGGSLTLTCKVSGFSLSDYDIYWVRQAPGKGLEWIGVIDIENSVYYPTWAKGRFTISKTSTTVDLKITSPTTEDTATYFCARGDYIMTLDLWGQGTLVTVSS VL: AAVLTQTPSPVSAAVGGTVTISCQASQSVYKNNRLAWYQQKPGQPPKLLIYLASTLASGVPSRFKGSGSGTQFTLTISDLESDDAATYYCAGGYSTISENAFGGGTEVVVK ; what primary supernatant functional assay (% inh.), NF-kB luciferase reporter value has been reported?
result: -36

query: Suppose we examine the binder P013.S.02.B.E04 (antibody, V domains shown, rabbit monoclonal antibody; also called P013.A.00088.A02) VH: QSLEESGGDLVKPGASLTLTCTASGFSLSSGGMSWVRQAPGKGLGWIGYINTGSGSTYYASWVNGRFTISKTSSTTVSLQMTSLTAADTATYFCAGGLPSDLWGPGTLVTVSS VL: DIVMTQTPSSVEAAVGGTVTIKCQASQSINSRLAWYQQKPGQPPKLLIYSASTLASGVSSRFKGSGSGTEFTLTISDLESADGATYYCLSHYLTSSSSYGDAFGGGTEVVVK ; what primary supernatant functional assay (% inh.), NF-kB luciferase reporter value has been reported?
result: -37
